Reported AUC(0-inf) values follow for various molecules
Assay: Exposure after intraperitoneal administration in mice
Type: in vivo
Conditions: male, mouse; brain, CD-1 mice, 3.16 mg/kg ip
Description: Animals. Male CD-1 mice were used in these studies Animals were randomly assigned to treatment groups and were fasted for 4 h before dosing. Drugs. Test compounds (HCl salts) were dissolved in de-ionized water and administered intraperitoneally (ip) at the indicated doses (calculated based on freebase) and at a volume of 5 mL/kg body weight. […] Data Analysis. The drug concentrations of samples below the lower limit of quantitation (LLOQ) were designated as zero. […]
QUANTITY: AUC(0-inf)

# MOLECULE, QUANTITY, OBSERVED_VALUE
records = [
    ("CN[C@]1(c2ccccc2)CCCCC1=O [Compound 14S]", "AUC(0-inf)", "1220 ng·h/mL"),
    ("CN[C@@]1(c2ccccc2)CCCCC1=O [Compound 14R]", "AUC(0-inf)", "2530 ng·h/mL"),
]
